target: Integrin alpha-IIb/beta-3 (Homo sapiens, UniProt P05106+P08514); test: Inhibition of fibrinogen binding to human alpha2b/beta3 integrin after 1 hr by ELISA
Sequence (P05106 27-788 limits assumed): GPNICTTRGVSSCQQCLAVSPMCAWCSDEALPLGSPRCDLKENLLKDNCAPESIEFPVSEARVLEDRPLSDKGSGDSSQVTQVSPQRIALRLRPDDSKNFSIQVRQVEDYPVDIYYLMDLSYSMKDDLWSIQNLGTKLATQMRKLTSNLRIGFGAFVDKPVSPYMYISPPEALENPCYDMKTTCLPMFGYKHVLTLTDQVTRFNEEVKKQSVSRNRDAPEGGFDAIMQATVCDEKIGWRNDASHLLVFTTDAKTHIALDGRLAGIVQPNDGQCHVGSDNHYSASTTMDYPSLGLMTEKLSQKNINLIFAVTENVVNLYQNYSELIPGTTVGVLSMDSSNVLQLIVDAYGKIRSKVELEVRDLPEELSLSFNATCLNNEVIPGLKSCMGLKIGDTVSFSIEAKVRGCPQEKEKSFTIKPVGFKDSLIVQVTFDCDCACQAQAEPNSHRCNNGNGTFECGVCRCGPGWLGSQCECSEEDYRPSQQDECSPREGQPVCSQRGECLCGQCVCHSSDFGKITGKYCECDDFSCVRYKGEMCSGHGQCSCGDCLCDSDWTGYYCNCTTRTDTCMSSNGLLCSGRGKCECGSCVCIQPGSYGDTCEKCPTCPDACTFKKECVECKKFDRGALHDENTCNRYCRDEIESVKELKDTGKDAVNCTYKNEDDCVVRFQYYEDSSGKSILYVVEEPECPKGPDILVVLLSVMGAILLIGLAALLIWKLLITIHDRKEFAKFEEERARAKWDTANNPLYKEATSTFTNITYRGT
Sequence (P08514 32-887 limits assumed): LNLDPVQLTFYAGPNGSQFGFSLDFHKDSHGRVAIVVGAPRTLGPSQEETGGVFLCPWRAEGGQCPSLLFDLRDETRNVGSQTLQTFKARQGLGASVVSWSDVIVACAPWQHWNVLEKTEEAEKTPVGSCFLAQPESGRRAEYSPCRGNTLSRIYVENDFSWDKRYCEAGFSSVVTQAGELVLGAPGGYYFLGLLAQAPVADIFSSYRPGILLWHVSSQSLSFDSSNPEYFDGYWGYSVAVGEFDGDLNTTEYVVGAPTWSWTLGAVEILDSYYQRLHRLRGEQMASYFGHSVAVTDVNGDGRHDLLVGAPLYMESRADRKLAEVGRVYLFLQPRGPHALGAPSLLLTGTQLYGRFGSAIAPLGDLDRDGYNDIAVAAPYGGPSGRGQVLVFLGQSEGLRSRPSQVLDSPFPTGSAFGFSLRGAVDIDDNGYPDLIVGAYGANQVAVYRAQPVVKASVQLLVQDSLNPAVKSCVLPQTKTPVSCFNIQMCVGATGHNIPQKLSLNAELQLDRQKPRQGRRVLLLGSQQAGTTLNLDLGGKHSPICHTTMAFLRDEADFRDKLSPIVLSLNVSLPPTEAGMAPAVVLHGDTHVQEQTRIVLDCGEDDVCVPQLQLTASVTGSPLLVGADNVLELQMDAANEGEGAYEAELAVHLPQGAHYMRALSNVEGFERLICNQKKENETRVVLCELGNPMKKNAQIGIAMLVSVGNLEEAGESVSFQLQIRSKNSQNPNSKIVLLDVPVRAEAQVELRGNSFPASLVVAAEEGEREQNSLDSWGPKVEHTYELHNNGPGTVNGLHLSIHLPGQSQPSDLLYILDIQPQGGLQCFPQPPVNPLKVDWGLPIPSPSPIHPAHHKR
Sequence (P08514 891-1039 limits assumed): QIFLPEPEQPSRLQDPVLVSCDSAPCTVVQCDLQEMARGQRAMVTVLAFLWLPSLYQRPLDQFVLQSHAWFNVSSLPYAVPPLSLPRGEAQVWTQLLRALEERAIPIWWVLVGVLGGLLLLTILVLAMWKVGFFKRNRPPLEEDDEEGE
Peptide text beside a SMILES is read from it.
Catalogue of compounds with associated IC50
Answers without a unit are incomplete; give the number and then its unit.

N=C(N)NCCC[C@H](N)C(=O)NCC(=O)N[C@@H](CC(=O)O)C(=O)O :: 130 µM

Next up:
Request: Please look up its IC50: N=C(N)NCCC[C@H](N)C(=O)NCC(=O)N[C@@H](CC(=O)O)C(=O)N[C@@H](Cc1ccccc1)C(=O)O (H-RGDF-OH)
Result: 725 µM

---

target: Integrin alpha-5/beta-1 (Homo sapiens, UniProt P05556+P08648); assay: Inhibition of fibronectin binding to human alpha5beta1 integrin after 1 hr by ELISA; format: protein-complex assay
Sequence (P05556 21-798 limits assumed): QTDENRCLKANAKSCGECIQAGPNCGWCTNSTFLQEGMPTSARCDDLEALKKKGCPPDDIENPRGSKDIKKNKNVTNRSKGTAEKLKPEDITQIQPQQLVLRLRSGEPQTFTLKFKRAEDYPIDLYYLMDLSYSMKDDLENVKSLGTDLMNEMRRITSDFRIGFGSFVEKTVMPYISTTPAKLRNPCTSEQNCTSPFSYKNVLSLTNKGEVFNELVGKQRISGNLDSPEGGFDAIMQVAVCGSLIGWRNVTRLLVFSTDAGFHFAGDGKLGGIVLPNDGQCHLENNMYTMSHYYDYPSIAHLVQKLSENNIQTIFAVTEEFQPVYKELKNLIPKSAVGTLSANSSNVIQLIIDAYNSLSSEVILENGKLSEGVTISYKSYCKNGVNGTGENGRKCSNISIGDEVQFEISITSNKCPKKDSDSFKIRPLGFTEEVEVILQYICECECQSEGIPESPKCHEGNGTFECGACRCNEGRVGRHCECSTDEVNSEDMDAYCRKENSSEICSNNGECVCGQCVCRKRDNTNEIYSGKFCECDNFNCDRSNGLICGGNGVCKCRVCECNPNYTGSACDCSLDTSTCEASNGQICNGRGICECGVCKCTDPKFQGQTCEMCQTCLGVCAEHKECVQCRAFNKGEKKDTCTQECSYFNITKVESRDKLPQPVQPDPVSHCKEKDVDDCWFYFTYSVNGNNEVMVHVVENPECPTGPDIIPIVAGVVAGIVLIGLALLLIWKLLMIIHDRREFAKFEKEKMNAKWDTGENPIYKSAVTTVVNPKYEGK
Sequence (P08648 42-894 limits assumed): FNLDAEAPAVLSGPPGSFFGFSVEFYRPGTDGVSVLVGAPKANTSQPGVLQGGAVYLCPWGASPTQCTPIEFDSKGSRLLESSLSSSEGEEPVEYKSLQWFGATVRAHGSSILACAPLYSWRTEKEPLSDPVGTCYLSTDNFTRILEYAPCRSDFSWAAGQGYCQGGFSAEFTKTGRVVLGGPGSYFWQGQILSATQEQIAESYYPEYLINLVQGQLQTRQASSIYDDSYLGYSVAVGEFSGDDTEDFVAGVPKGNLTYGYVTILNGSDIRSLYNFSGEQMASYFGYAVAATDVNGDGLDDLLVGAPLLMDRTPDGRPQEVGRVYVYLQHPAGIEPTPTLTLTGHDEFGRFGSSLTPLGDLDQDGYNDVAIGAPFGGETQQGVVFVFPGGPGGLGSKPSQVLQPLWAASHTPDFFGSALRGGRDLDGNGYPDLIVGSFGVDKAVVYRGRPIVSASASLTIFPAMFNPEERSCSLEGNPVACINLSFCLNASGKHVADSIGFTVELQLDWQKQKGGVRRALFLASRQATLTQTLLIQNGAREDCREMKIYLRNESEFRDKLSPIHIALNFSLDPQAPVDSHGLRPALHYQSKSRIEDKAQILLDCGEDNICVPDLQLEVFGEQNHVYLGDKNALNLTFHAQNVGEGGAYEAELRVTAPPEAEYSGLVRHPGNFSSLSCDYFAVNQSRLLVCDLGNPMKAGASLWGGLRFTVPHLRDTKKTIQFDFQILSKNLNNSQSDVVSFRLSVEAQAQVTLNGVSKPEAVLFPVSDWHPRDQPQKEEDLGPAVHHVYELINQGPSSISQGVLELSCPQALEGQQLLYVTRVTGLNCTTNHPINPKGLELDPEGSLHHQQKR
Sequence (P08648 895-1049 limits assumed): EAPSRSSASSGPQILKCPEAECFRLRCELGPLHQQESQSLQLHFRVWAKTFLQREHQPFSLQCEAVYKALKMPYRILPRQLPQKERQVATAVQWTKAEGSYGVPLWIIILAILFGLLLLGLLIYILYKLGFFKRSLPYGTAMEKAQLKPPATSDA
Peptide text beside a SMILES is read from it.
ASSAY METRIC: pIC50
The value called pIC50 is obtained by taking minus log10 of the concentration in mol/L.

Request: Quick one: pIC50 of N=C(N)NCCC[C@H](N)C(=O)NCC(=O)N[C@@H](CC(=O)O)C(=O)N[C@@H](Cc1ccccc1)C(=O)O (H-RGDF-OH) ?
Result: 2.81

Ref: ChEMBL document CHEMBL3297736
